The origin of these recorded values is the supplement of paper PMC10567573.

Field: protein stability index. Provide a value for each of the variants that follow.
B1: EMD (parent)
chain: YQSKGYNDDYYEESYFTTRTYGEP

# Variants of: B1
# assayName: protein stability index of a GFP-peptide fusion (GPS, HEK-293T) (PSI 1-6); higher = more stable;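 also: lentivirally expressed fusions sorted by FACS into six bins by GFP to DsRed ratio, PSI derived from sequencing read proportions per bin multiplied by bin number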
# experimentalParameters: c terminus: a fixed tail appended
Output: the number by itself.

## Task Param item = YQSKGYNDDYYEGSYFTTRTYGEP [E13G] ; retrieve measured protein stability index.
## Result 2

## Task Look at this variant and give its reported protein stability index. YTSKGYNDDYYEESYFTTRTYGEP [Q2T]
## Result 1.99

## Task Field request: protein stability index | item: YQSKGYNDDYYEESYKTTRTYGEP [F16K]
## Result 3.15

## Task Given the variant CQSKGYNDDYYEESYFTTRTYGEP [Y1C] , what is its reported protein stability index?
## Result 3.02

## Task Given the variant YQFKGYNDDYYEESYFTTRTYGEP [S3F] , what is its reported protein stability index?
## Result 2.25

## Task GET /values?readout=protein stability index&item= YQSKGYNDDYYEVSYFTTRTYGEP [E13V]
## Result 1.71

## Task Name the reported protein stability index value associated with the variant YQSKGYNDWYYEESYFTTRTYGEP [D9W]
## Result 2.68

## Task Reported protein stability index for YQSKGYNDDYEEESYFTTRTYGEP [Y11E] : what is it?
## Result 3.16

## Task Give its protein stability index value. Item: YQSKGYNDDYYEESYFTTRIYGEP [T20I]
## Result 1.73

## Task Given the entry YQSKGYNDDYYEESYFTTYTYGEP [R19Y] , report its measured protein stability index.
## Result 2.52

## Task Quick check: protein stability index of YQSKGYNDDYYEESYGTTRTYGEP [F16G] ?
## Result 3.26

## Task Query: protein stability index; subject: SQSKGYNDDYYEESYFTTRTYGEP [Y1S]
## Result 3.67

## Task I'd like to know its protein stability index. The variant in question is YQSKGYNDDYYEESGFTTRTYGEP [Y15G]
## Result 2.96

## Task Consider the variant YQSKGYNDDYYEESYFTTRAYGEP [T20A] and give its measured protein stability index.
## Result 2.15

## Task Please look up its protein stability index: YQSKGYNDDYYEESYFTTRGYGEP [T20G]
## Result 2.6

## Task Given the entry AQSKGYNDDYYEESYFTTRTYGEP [Y1A] , report its measured protein stability index.
## Result 3.8

## Task Report protein stability index for YQSLGYNDDYYEESYFTTRTYGEP [K4L] please.
## Result 2.06

## Task Which protein stability index value is on record for YQSKGYNDDYYEESYFTTRNYGEP [T20N] ?
## Result 2.53

## Task Reported protein stability index for YQSKGYNDDYYEESYFQTRTYGEP [T17Q] : what is it?
## Result 2.31

## Task Name the recorded protein stability index for YKSKGYNDDYYEESYFTTRTYGEP [Q2K] .
## Result 3.13

## Task Which protein stability index value is on record for YQSKGYNDDYYSESYFTTRTYGEP [E12S] ?
## Result 2.33

## Task What value of measured protein stability index is listed for YQSKGYNDDYHEESYFTTRTYGEP [Y11H] ?
## Result 2.6

## Task I have this variant here, YQSKGYNDDYYEELYFTTRTYGEP [S14L] , and I need its recorded protein stability index.
## Result 2.08

## Task Return reported protein stability index; argument: YQSKGYNDDPYEESYFTTRTYGEP [Y10P]
## Result 2.53

## Task Value lookup for protein stability index; key = YQSKGYNDDFYEESYFTTRTYGEP [Y10F]
## Result 2.11

## Task Dear colleague, I am looking for the recorded protein stability index of the following variant: YQSKGYNDDYVEESYFTTRTYGEP [Y11V]
## Result 2.34

## Task Value lookup for protein stability index; key = YQSKGYNDDYYEESYFTTRTYGRP [E23R]
## Result 1.91

## Task Name the reported protein stability index value associated with the variant YQSKGYNDDYYEESYFTKRTYGEP [T18K]
## Result 2.65

## Task Dear colleague, I am looking for the recorded protein stability index of the following variant: YQSKGYNMDYYEESYFTTRTYGEP [D8M]
## Result 3.87

## Task GET /values?readout=protein stability index&item= YQSKGYNDDYYEESYFTTRTYTEP [G22T]
## Result 2.49

## Task Would you mind telling me what protein stability index value was observed for YQSKGYNDDYYEENYFTTRTYGEP [S14N] ?
## Result 2.35

## Task Which value of protein stability index has been reported for YQSKGYNDDYYEESYFTTRTCGEP [Y21C] in the records?
## Result 2.81

## Task Look up protein stability index: YQSKGVNDDYYEESYFTTRTYGEP [Y6V]
## Result 3.31

## Task Entry under review: YQSKGYNDDYYEESYFTTRTYGQP [E23Q] . Reported protein stability index?
## Result 1.94

## Task Record request: protein stability index value, item YQSKGYNDDYYEESCFTTRTYGEP [Y15C]
## Result 2.37

## Task Suppose we examine the variant YQSKLYNDDYYEESYFTTRTYGEP [G5L] ; what protein stability index value has been reported?
## Result 1.82

## Task Using the record for YQSKGYNDDYYEESYFTTRTYGSP [E23S] , report its protein stability index.
## Result 2.12

## Task Could you share which protein stability index value was measured for YQSKGYNDDYYEESYFTTRTYGEW [P24W] ?
## Result 1.74

## Task Param item = YQSKGLNDDYYEESYFTTRTYGEP [Y6L] ; retrieve measured protein stability index.
## Result 2.24

## Task Looking for the measured protein stability index of YQSKGYNDDYYEESQFTTRTYGEP [Y15Q] , can you help?
## Result 2.91

## Task So what's the measured protein stability index for this one? YQWKGYNDDYYEESYFTTRTYGEP [S3W]
## Result 1.72

## Task Given the entry YQSKGWNDDYYEESYFTTRTYGEP [Y6W] , report its measured protein stability index.
## Result 1.48

## Task Which protein stability index value is on record for YQSKGYNDDYMEESYFTTRTYGEP [Y11M] ?
## Result 2.51

## Task Tell me the measured protein stability index of YQSKGYNDDWYEESYFTTRTYGEP [Y10W] , please.
## Result 2.38

## Task Quick one: protein stability index of TQSKGYNDDYYEESYFTTRTYGEP [Y1T] ?
## Result 3.7

## Task If you can, please state the reported protein stability index value of YQSKGYNDDYYEESYFTTRTWGEP [Y21W] .
## Result 1.96

## Task What value of protein stability index has been reported for the following variant? YQSKGYNDDYYEEKYFTTRTYGEP [S14K]
## Result 2.16

## Task I have this variant here, YQMKGYNDDYYEESYFTTRTYGEP [S3M] , and I need its recorded protein stability index.
## Result 2.38

## Task Find the recorded protein stability index belonging to YQSKGYNDDYYEESKFTTRTYGEP [Y15K] and report it.
## Result 2.63

## Task So what's the measured protein stability index for this one? YQSKGYNDDTYEESYFTTRTYGEP [Y10T]
## Result 2.5

## Task What does the data say about its protein stability index? Entry: YQSKGYNDDYYEESYFTVRTYGEP [T18V]
## Result 1.95

## Task Fill in: protein stability index of YQSKGYGDDYYEESYFTTRTYGEP [N7G] is ___
## Result 2.13

## Task Data request, read-out protein stability index, for YQSKGYNDDYYEHSYFTTRTYGEP [E13H]
## Result 1.47

## Task Reported protein stability index, variant YQSKGYNGDYYEESYFTTRTYGEP [D8G] : ____
## Result 1.65

## Task I am curious: what protein stability index value has been reported for YQSKGYNDDYYEESYFTTRCYGEP [T20C] ?
## Result 2.26

## Task Reported protein stability index, variant YQSKGYNDDKYEESYFTTRTYGEP [Y10K] : ____
## Result 2.44

## Task // protein stability index lookup, key: YQSKGYNDDYYEESYFTQRTYGEP [T18Q]
## Result 2.3

## Task Any idea what protein stability index was measured for YQSKGYNDDYYEESYFATRTYGEP [T17A] ?
## Result 2.36

## Task I would be grateful if you could share the reported protein stability index for YQSKGYNDDYYEESYFTTRTYKEP [G22K] .
## Result 2.85

## Task Please give the measured protein stability index for this variant: YQSKGYNDDSYEESYFTTRTYGEP [Y10S]
## Result 2.65

## Task Recorded protein stability index of YQSKGYNDDYYEESYFETRTYGEP [T17E] , please.
## Result 3.02

## Task Returns the measured protein stability index for the input variant. Input: YQSKGYNDDYYDESYFTTRTYGEP [E12D]
## Result 2.57

## Task Param item = YQSKGYNDDYYEESHFTTRTYGEP [Y15H] ; retrieve measured protein stability index.
## Result 2.9

## Task What measured protein stability index goes with YQSKGYNDDYYEEQYFTTRTYGEP [S14Q] ?
## Result 2.34
